Every entry's value here was drawn from paper PMC8126888.

- System: Leishmania infantum MHOM/MA(BE)/67/ITMAP263 intracellular amastigotes
- protocolText: microbe, parasite or virus in culture
- studyConditions: Macrophage, in Mus musculus, read-out: L. Inf. pIC50, from L. infantum intracellular amastigote IC50 (converted)

- compoundSmiles: "CCN(Cc1ccc(F)cc1)S(=O)(=O)c1cc(Cl)ccc1OC"
  subjectOfTest: "Leishmania infantum MHOM/MA(BE)/67/ITMAP263 intracellular amastigotes"
  IC50 / µM: 21.9
- compoundSmiles: "COc1ccc(Cl)cc1S(=O)(=O)N(CCO)Cc1ccccc1"
  subjectOfTest: "Leishmania infantum MHOM/MA(BE)/67/ITMAP263 intracellular amastigotes"
  IC50 / µM: 37.2
- compoundSmiles: "COc1ccc(CN2CCCC2)cc1S(=O)(=O)N(Cc1ccc(F)cc1)Cc1ccc(F)cc1"
  subjectOfTest: "Leishmania infantum MHOM/MA(BE)/67/ITMAP263 intracellular amastigotes"
  IC50 / µM: 2.95
- compoundSmiles: "COc1ccc(S(=O)(=O)N2CCOCC2)cc1C(=O)N(Cc1ccc(F)cc1)Cc1ccc(F)cc1"
  subjectOfTest: "Leishmania infantum MHOM/MA(BE)/67/ITMAP263 intracellular amastigotes"
  IC50 / µM: 17
